# Tested on: UACC-257
# protocol_description: NCI tumour cell line growth inhibition, 48 h
The source made the active and inactive calls. Rule as the data show it: active = GI50 up to about 1.1 µM and inactive = higher.
Pick one and only one: active, inactive

Field: example entries. Status: answers known.
compound	class
OCC1C2CCC3(OCCO3)C12 (stereo not drawn)	inactive
CCOC(OC1=C(C#N)CCCC1)C(CC)[Se]c1ccccc1 (stereo not drawn)	inactive
O=[N+]([O-])c1ccc(C2Nn3c(nnc3-c3cccc([N+](=O)[O-])c3)S2)cc1 (stereo not drawn)	inactive

For this compound, state the assay outcome: C[C@]12CCC(=O)C(O)=C1CC[C@@H]1[C@@H]2CC[C@]2(C)C(=O)CC[C@@H]12 [FORMESTANE]
inactive
